pIC50: −log10 of the molar value.
# merged literature set: pIC50 with IRAK4 (Homo sapiens (Human), UniProt Q9NWZ3)
property name: pIC50

compound=CC(C)(O)CNc1cc(-c2cnn3cc(Cl)cnc23)ncc1C(=O)NC[C@@H](F)C(C)(C)O result=7.85
compound=Cn1cc(-n2ccc3nc(Nc4csc5ccccc45)nc(O[C@H]4CCOC4)c32)cn1 result="5.00 to 6.00"
compound=CN[C@H]1CC[C@@H](Oc2nc(Nc3cc(C)ns3)nc3ccsc23)CC1 result="6.00 to 7.00"
compound=Cc1cc(Nc2nc(N[C@H]3CC[C@@H](O)C3)c3c(ccn3-c3cnn(C)c3)n2)sn1 result="≥ 7.00"
compound=Cc1nnc(C23CCC(Nc4cc(-c5ccc6cc(C#N)cnn56)ncc4C(=O)NC[C@@H](F)C(C)(C)O)(CC2)CO3)o1 result="> 9.00"
compound=COc1ccc2c(c1)nc1n2Cc2cccc(c2)-c2ccc(=O)n(n2)Cc2cccc(c2)C(=O)N1 result="> 7.00"
compound="Cc1ncsc1-c1ccc(CNC(=O)[C@@H]2C[C@@H](O)CN2C(=O)[C@@H](NC(=O)COCCOCCOCCOCCN2CCN(Cc3ccc4c(c3)nc(NC(=O)c3cccc(C(F)(F)F)c3)n4C3CCC(CO)CC3)CC2)C(C)(C)C)cc1 (mixture of isomers)" result="> 7.52"

====

We begin with pIC50 values for IRAK4 (Homo sapiens (Human), UniProt Q9NWZ3), as collected from the published literature.
pIC50: −log10 of the molar value.
property name: pIC50

molecule="CC(O)C[C@@H]1CCc2sc3ncnc(O[C@H]4CC[C@H](N5CCOCC5)CC4)c3c2C1 (stereo partly shown)" result="> 5.30"
molecule=Cn1cc(-c2cccc(-c3ncc(-c4cnn(C)c4)c(NCc4ccncc4)n3)c2)cn1 result="6.00 to 7.00"
molecule="CCc1cccc(-c2ncc3ccc(-c4cccc(C(C)N)n4)cn23)n1 (stereo not shown)" result="> 7.00"
molecule=C=CC(=O)N1CCC[C@H](C(=O)Nc2ccc(-c3nc(-c4cccc(-c5ccn[nH]5)n4)no3)nc2)C1 result=6.48
molecule=N[C@H](c1cncc(-c2ccc3cnn(-c4cccc(C(F)(F)F)n4)c3c2)n1)[C@H]1C[C@@H](O)C1 result="≥ 7.00"
molecule=Cn1cc(-c2cccc(C(=O)Nc3nc(CCCC(=O)NN4CCCCC4)cn3-c3ccccc3)c2)cn1 result="7.00 to 7.30"
molecule=CC(C)Nc1cc(-n2ncc3cc(C#N)cnc32)ncc1-n1cc(C[C@@H](O)c2ccccc2)nn1 result=8.30

====

Reported IC50 against IRAK4 (Homo sapiens (Human), UniProt Q9NWZ3), gathered from multiple publications, appears below.
property name: IC50 (nM)

compound="CC(C)(O)[C@H](F)CNC(=O)c1cnc(-c2ccc3cc(C#N)cnn23)cc1NC1CCC(c2cnc(C(F)F)s2)CC1 (some centres unmarked)" unit_label=nM value_modifier== numeric_readout=3
compound=Cc1ncc(-c2cc3c(NC(C)C)c(C(=O)NC[C@@H](F)C(C)(C)O)cnc3s2)s1 unit_label=nM value_modifier== numeric_readout=8.2
compound="O=C1Nc2nc3ccccc3n2CC(O)CCOc2ccc(=O)n(n2)Cc2cccc1c2 (centres unmarked)" unit_label=nM value_modifier=< numeric_readout=100
compound=CC(C)Nc1cc(-n2ncc3cc(C#N)cnc32)ncc1-c1cn(Cc2ccccc2)cn1 unit_label=nM value_modifier== numeric_readout=27
compound=NC(=O)c1c[nH]c(=O)c2cc3ccnc(OC[C@@H]4CCC(=O)N4)c3cc12 unit_label=nM value_modifier== numeric_readout=988
compound=CC[C@@H](N)c1cccc(-c2cc(-c3cc(C)n(C)n3)c3cnn(-c4cccc(CO)n4)c3c2)n1 unit_label=nM value_modifier=< numeric_readout=100
compound="CC(C)(O)[C@H](F)CNC(=O)c1cnc(-c2cnn3cc(Cl)cnc23)cc1NC1CCC(F)C1 (some centres unmarked)" unit_label=nM value_modifier== numeric_readout=1
compound=CN(C)[C@H]1CC[C@H](Nc2ncnc3sc4c(c23)C[C@@H](C(N)=O)CC4)CC1 unit_label=nM value_modifier=< numeric_readout=5000
